Tested on: Huh-7 cells carrying a HCV genotype 1a replicon
assay.details: Cytotoxicity combination studies with Compound 4, MacSynergy II
assay.setup: in combination with Compound 4, mean ± standard deviation
The following molecules are shown together with reported Synergy Volume (cytotoxicity) values.
Give the number; nM^2% is assumed, so skip it.

CC1=CC[C@H](C(=O)N(c2cc(C#CC(C)(C)C)sc2C(=O)O)[C@H]2CC[C@](O)(CO[C@H]3CCOC3)CC2)CC1 15
CC[C@@H]1C[C@]1(NC(=O)[C@@H]1C[C@@H](Oc2cc(-c3csc(NC(C)C)n3)nc3c(Cl)c(OCCN4CCOCC4)ccc23)CN1C(=O)[C@@H](NC(=O)O[C@@H]1C[C@@H]2C[C@@H]2C1)C(C)(C)C)C(=O)O 3
COC(=O)N[C@H](C(=O)N1CC2(CC2)C[C@H]1c1ncc(-c2ccc3c(c2)C(F)(F)c2cc(-c4ccc5nc([C@@H]6[C@H]7CC[C@H](C7)N6C(=O)[C@@H](NC(=O)OC)C(C)C)[nH]c5c4)ccc2-3)[nH]1)C(C)C 8
COc1ccc2c(O[C@@H]3C[C@H]4C(=O)N[C@]5(P(=O)(O)Cc6c(F)cccc6F)C[C@H]5CCCCCCC[C@H](NC(=O)OC5CCCC5)C(=O)N4C3)cc(-c3csc(NC(C)C)n3)nc2c1Cl 17

--- query ---
Reported Synergy Volume (cytotoxicity) for `Fc1ccccc1-c1nc2ccn(Cc3ccc(-c4ccc(C(F)(F)F)cc4C(F)(F)F)nn3)cc-2n1` : what is it?
13
